measured.on: human GluN1/GluN2B NMDA receptors (Homo sapiens, UniProt Q13224)
Construct: expressed in transfected cells
Sequence (Q13224 27-1484, other chains not shown): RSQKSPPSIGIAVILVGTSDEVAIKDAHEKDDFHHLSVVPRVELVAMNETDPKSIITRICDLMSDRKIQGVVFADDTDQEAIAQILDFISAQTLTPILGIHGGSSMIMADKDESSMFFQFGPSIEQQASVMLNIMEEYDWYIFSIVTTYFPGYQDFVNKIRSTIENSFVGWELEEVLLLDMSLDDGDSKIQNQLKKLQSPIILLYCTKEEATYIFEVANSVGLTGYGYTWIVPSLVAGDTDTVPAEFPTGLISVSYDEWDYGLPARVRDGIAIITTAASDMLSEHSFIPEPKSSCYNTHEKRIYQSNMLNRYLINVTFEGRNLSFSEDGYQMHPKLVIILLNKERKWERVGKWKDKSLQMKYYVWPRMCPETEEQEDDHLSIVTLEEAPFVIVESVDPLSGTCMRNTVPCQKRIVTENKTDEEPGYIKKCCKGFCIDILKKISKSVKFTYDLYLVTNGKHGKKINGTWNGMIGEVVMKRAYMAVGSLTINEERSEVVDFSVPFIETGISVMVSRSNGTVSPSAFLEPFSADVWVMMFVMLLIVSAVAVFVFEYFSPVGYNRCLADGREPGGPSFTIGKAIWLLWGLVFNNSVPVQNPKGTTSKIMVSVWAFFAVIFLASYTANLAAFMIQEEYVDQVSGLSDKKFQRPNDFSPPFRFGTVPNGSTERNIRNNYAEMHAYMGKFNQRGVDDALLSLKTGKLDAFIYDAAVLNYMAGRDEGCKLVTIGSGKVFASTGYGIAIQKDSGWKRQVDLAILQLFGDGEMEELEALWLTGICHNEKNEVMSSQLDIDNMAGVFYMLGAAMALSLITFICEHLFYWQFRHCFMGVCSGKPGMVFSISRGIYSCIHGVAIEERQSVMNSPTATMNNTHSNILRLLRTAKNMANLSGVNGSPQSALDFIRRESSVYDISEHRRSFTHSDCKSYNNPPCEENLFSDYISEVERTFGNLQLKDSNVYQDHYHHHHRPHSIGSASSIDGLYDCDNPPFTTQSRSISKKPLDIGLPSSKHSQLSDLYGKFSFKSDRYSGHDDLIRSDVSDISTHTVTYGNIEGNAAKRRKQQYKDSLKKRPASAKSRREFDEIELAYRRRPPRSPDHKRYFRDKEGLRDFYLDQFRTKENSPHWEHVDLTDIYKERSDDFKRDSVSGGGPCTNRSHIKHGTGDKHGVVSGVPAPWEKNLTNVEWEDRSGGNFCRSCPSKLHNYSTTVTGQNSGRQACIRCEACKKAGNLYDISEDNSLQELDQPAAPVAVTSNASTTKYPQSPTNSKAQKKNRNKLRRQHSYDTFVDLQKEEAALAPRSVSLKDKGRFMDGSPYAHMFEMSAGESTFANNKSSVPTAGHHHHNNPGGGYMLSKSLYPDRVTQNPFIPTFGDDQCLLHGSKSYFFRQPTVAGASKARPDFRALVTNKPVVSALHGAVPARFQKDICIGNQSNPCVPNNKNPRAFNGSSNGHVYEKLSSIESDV
measurement.description: Cell-based calcium flux (FLIPR) assay on cloned human NR1/NR2B ion channels expressed in mammalian cells (standard and HTS buffer variants);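 also: stable Tet-On inducible cell line, Ca2+ influx triggered by glutamate at about EC40 plus 10 µM glycine, fluorescent dye read-out over 5 min, normalized to control wells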
cond: standard assay buffer (0.5 mM MgCl2 dye loading; 137 mM NaCl, 4 mM KCl assay buffer), human GluN1/GluN2B cells, read-out: NR2B IC50 (μM) standard assay
parameter: IC50 (µM)

Solved entries:
input: May I ask what IC50 has been recorded for Cc1ncc(Cn2c(=O)[nH]c3ncc(-c4cccc(C(F)(F)F)c4)cc32)cn1 ?
output: 0.094

input: Also check CN(C)C(=O)Cn1c(=O)n(C)c2ncc(-c3ccc(C(F)(F)F)s3)cc21
output: 0.034

(P) Cc1cc(-c2cnc3c(c2)n(Cc2cncnc2)c(=O)n3C)ccc1F
(Q) O=c1[nH]c2ncc(-c3cccc(C(F)(F)F)c3)cc2n1Cc1ncc(F)cn1
input: Look at P and Q . Which one has the lower recorded IC50 number? To answer, give the label that identifies your chosen option.
output: P
(P: 0.072 µM, Q: 0.134 µM)
